Listed compounds paired with reported IC50
system: Plasmodium falciparum; test: Antimalarial activity against chloroquine-resistant Plasmodium falciparum FcB1/Columbia infected in human erythrocytes assessed as inhibition of [G-3H]hypoxanthine incorporation after 24 hrs by scintillation counting; assay type: functional, organism-based
Kindly provide the numeric value in nM only, without the unit symbol.

[[record]]
compound = "CCCCCCCC[C@@H]1C[C@@H]2CC[C@H]3[C@@H](C(=O)OC(C)CCCCCCC[C@@H]4C[C@@H]5CC[C@@H]6C[C@H](C)NC(=N4)N65)[C@@H](C)N=C(N1)N23 (some centres undefined) [NORBATZELLADINE L]"
assayed_system = "Plasmodium falciparum"
parameter_measured = "IC50"
recorded_result = 400

[[record]]
compound = "CCCCCCC[C@@H]1C[C@@H]2CCc3c(C(=O)OCCCCCCC[C@H]4NC(=N)N5CCCC5=C4C(=O)OCCCCNC(=N)N)c(C)nc([n+]32)N1 [DINORDEHYDROBATZELLADINE B]"
assayed_system = "Plasmodium falciparum"
parameter_measured = "IC50"
recorded_result = 800

[[record]]
compound = "CCCCCCC[C@@H]1C[C@@H]2CC[C@H]3[C@@H](C(=O)OCCCCCCCCC[C@H]4NC(=N)N5CCCC5=C4C(=O)OCCCCNC(=N)N)[C@@H](C)N=C(N1)N23 [DINORBATZELLADINE A]"
assayed_system = "Plasmodium falciparum"
parameter_measured = "IC50"
recorded_result = 900


Now consider the entry below.
# input Notebook: pull reported IC50 for Plasmodium falciparum, entry CCCCCCCC[C@@H]1C[C@@H]2CC[C@H]3[C@@H](C(=O)OCCCCCCCCC[C@H]4NC(=N)N5CCCC5=C4C(=O)OCCCCNC(=N)N)[C@@H](C)N=C(N1)N23 [NORBATZELLADINE A]
# output 200

---

test system: MDA-MB-231; assay: Growth inhibition of human MDA-MB-231 cells by sulforhodamine B assay; assay type: functional; conditions: read-out: LC50 (the source's name)
parameter.measured: CC50 (µM)
Kindly provide the numeric value in µM only, without the unit symbol.

[[record]]
compound = "CCCCCCCCC[C@@H]1C[C@@H]2CCc3c(C(=O)OCCCCNC(=N)N)c(CCCCC)nc([n+]32)N1 [DIHOMODEHYDROBATZELLADINE C]"
display_unit = "µM"
recorded_result = 15.6

[[record]]
compound = "CCCCCCCC[C@@H]1C[C@@H]2CC[C@H]3[C@@H](C(=O)OCCCCCCCCC[C@H]4NC(=N)N5CCCC5=C4C(=O)OCCCCNC(=N)N)[C@@H](C)N=C(N1)N23 [NORBATZELLADINE A]"
display_unit = "µM"
recorded_result = 11.4

[[record]]
compound = "CCCCCCCC[C@@H]1C[C@@H]2CC[C@H]3[C@@H](C(=O)OC(C)CCCCCCC[C@@H]4C[C@@H]5CC[C@@H]6C[C@H](C)NC(=N4)N65)[C@@H](C)N=C(N1)N23 (stereo not given in full) [NORBATZELLADINE L]"
display_unit = "µM"
recorded_result = 4.8


Now consider the entry below.
# input Notebook: pull reported CC50 for MDA-MB-231, entry CCCCCCC[C@@H]1C[C@@H]2CC[C@H]3[C@@H](C(=O)OCCCCCCCCC[C@H]4NC(=N)N5CCCC5=C4C(=O)OCCCCNC(=N)N)[C@@H](C)N=C(N1)N23 [DINORBATZELLADINE A]
# output 4.6

---

tested on: MDA-MB-231; test: Growth inhibition of human MDA-MB-231 cells by sulforhodamine B assay; assay type: functional
parameter.measured: log10 GI50 (log10 of the value in µM)
Could you please treat all values as log10 of GI50 in µM?

[[record]]
molecule = "CCCCCCCC[C@@H]1C[C@@H]2CC[C@H]3[C@@H](C(=O)OC(C)CCCCCCC[C@@H]4C[C@@H]5CC[C@@H]6C[C@H](C)NC(=N4)N65)[C@@H](C)N=C(N1)N23 (stereo not given in full)"
parameter_measured = "log10 GI50"
recorded_result = -0.15


# input Fill in the blank: the reported log10 GI50 of `CCCCCCCC[C@@H]1C[C@@H]2CC[C@H]3[C@@H](C(=O)OCCCCCCCCC[C@H]4NC(=N)N5CCCC5=C4C(=O)OCCCCNC(=N)N)[C@@H](C)N=C(N1)N23` is ____.
# output 0.58

# input Note, next up: CCCCCCCCC[C@@H]1C[C@@H]2CCc3c(C(=O)OCCCCNC(=N)N)c(CCCCC)nc([n+]32)N1 [DIHOMODEHYDROBATZELLADINE C]
# output 0.79

# input Note, next up: `CCCCCCC[C@@H]1C[C@@H]2CCc3c(C(=O)O)c(C)nc([n+]32)N1`
# output 1.13

# input Note, next up: `CCCCCCC[C@@H]1C[C@@H]2CC[C@H]3[C@@H](C(=O)OCCCCCCCCC[C@H]4NC(=N)N5CCCC5=C4C(=O)OCCCCNC(=N)N)[C@@H](C)N=C(N1)N23`
# output 0.48

---

test system: A549; experiment: Growth inhibition of human A549 cells by sulforhodamine B assay; type: functional
parameter.measured: TGI (µM)
Kindly provide the numeric value in µM only, without the unit symbol.

// below: answered molecules
[[record]]
molecule = "CCCCCCCC[C@@H]1C[C@@H]2CC[C@H]3[C@@H](C(=O)OCCCCCCCCC[C@H]4NC(=N)N5CCCC5=C4C(=O)OCCCCNC(=N)N)[C@@H](C)N=C(N1)N23"
parameter_measured = "TGI"
recorded_result = 4.6

[[record]]
molecule = "CCCCCCC[C@@H]1C[C@@H]2CC[C@H]3[C@@H](C(=O)OCCCCCCCCC[C@H]4NC(=N)N5CCCC5=C4C(=O)OCCCCNC(=N)N)[C@@H](C)N=C(N1)N23"
parameter_measured = "TGI"
recorded_result = 5.1

[[record]]
molecule = "CCCCCCCC[C@@H]1C[C@@H]2CC[C@H]3[C@@H](C(=O)OC(C)CCCCCCC[C@@H]4C[C@@H]5CC[C@@H]6C[C@H](C)NC(=N4)N65)[C@@H](C)N=C(N1)N23 (stereo partly specified)"
parameter_measured = "TGI"
recorded_result = 2.1


# input Fill in the blank: the reported TGI of CCCCCCCCC[C@@H]1C[C@@H]2CCc3c(C(=O)OCCCCNC(=N)N)c(CCCCC)nc([n+]32)N1 [DIHOMODEHYDROBATZELLADINE C] is ____.
# output 8.2

---

Listed molecules paired with reported GI50
tested on: HT-29; experiment: Growth inhibition of human HT-29 cells by sulforhodamine B assay; type: functional
Kindly provide the numeric value in µM only, without the unit symbol.

# input Fill in the blank: the reported GI50 of CCCCCCCC[C@@H]1C[C@@H]2CC[C@H]3[C@@H](C(=O)OCCCCCCCCC[C@H]4NC(=N)N5CCCC5=C4C(=O)OCCCCNC(=N)N)[C@@H](C)N=C(N1)N23 [NORBATZELLADINE A] is ____.
# output 1.6

# input Note, next up: CCCCCCC[C@@H]1C[C@@H]2CC[C@H]3[C@@H](C(=O)OCCCCCCCCC[C@H]4NC(=N)N5CCCC5=C4C(=O)OCCCCNC(=N)N)[C@@H](C)N=C(N1)N23 [DINORBATZELLADINE A]
# output 1.9

# input Note, next up: CCCCCCC[C@@H]1C[C@@H]2CCc3c(C(=O)OCCCCCCC[C@H]4NC(=N)N5CCCC5=C4C(=O)OCCCCNC(=N)N)c(C)nc([n+]32)N1 [DINORDEHYDROBATZELLADINE B]
# output 6.2

# input Note, next up: CCCCCCCC[C@@H]1C[C@@H]2CC[C@H]3[C@@H](C(=O)OC(C)CCCCCCC[C@@H]4C[C@@H]5CC[C@@H]6C[C@H](C)NC(=N4)N65)[C@@H](C)N=C(N1)N23 (stereo partly specified) [NORBATZELLADINE L]
# output 1.2

# input Note, next up: CCCCCCCCC[C@@H]1C[C@@H]2CCc3c(C(=O)OCCCCNC(=N)N)c(CCCCC)nc([n+]32)N1 [DIHOMODEHYDROBATZELLADINE C]
# output 3.1

---

Listed compounds paired with reported TGI
test system: HT-29; experiment: Growth inhibition of human HT-29 cells by sulforhodamine B assay; assay type: functional
Kindly provide the numeric value in µM only, without the unit symbol.

// below: answered compounds
[[record]]
compound = "CCCCCCCCC[C@@H]1C[C@@H]2CCc3c(C(=O)OCCCCNC(=N)N)c(CCCCC)nc([n+]32)N1 [DIHOMODEHYDROBATZELLADINE C]"
recorded_result = 5.1

[[record]]
compound = "CCCCCCCC[C@@H]1C[C@@H]2CC[C@H]3[C@@H](C(=O)OCCCCCCCCC[C@H]4NC(=N)N5CCCC5=C4C(=O)OCCCCNC(=N)N)[C@@H](C)N=C(N1)N23"
recorded_result = 3.2

[[record]]
compound = "CCCCCCC[C@@H]1C[C@@H]2CC[C@H]3[C@@H](C(=O)OCCCCCCCCC[C@H]4NC(=N)N5CCCC5=C4C(=O)OCCCCNC(=N)N)[C@@H](C)N=C(N1)N23"
recorded_result = 4.2


Now consider the entry below.
# input Fill in the blank: the reported TGI of CCCCCCCC[C@@H]1C[C@@H]2CC[C@H]3[C@@H](C(=O)OC(C)CCCCCCC[C@@H]4C[C@@H]5CC[C@@H]6C[C@H](C)NC(=N4)N65)[C@@H](C)N=C(N1)N23 (stereo partly specified) is ____.
# output 2.2
